Target: T1, BsGpsB1-68 (B. subtilis, UniProt P0CI74 1-68)
T1 construct: GpsB, Bacillus subtilis, residues 1-68 (N-terminal domain); also called N-terminal domain of B. subtilis GpsB; wildtype BsGpsB1-68; source: E. coli BL21(DE3), purified (Ni-NTA, thrombin removal of the His6-tag, SEC); not shown: His6, N-terminal, cleaved
T1 sequence (looked up): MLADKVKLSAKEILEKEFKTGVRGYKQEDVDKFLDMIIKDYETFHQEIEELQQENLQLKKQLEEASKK
Experiment: fluorescence polarisation; GpsB protein titrated into TAMRA- or fluorescein-labelled peptide; 10 mM Tris.HCl pH 8.0, 250 mM NaCl, 0.1% reduced Triton X-100; all data fitted to a 1:1 interaction model, Kd ± standard error
Conditions: both partners purified
No end group written: not given here. fluorescein‑maleimide = fluorescein attached via maleimide to Cys
Provide the recorded pKd for the entries that follow.
Just the number, please; pKd means minus log10 of the concentration in mol/L.

-- ask Can you look up the measured pKd of GSMADQFNSREARRKANC(TAMRA‑maleimide)KSSPSPKKGKKAKKGG (non-native N-terminal residues left by the recombinant method; PBP1 (ponA), Bacillus subtilis, residues 1-32; also called BsPBP1 1-32 R28A) [TAMRA-BsPBP11-32 Arg28Ala] for me?
-- reply 4.05

-- ask I have this binder here, GSMADQFNSREARRKANSKSSPSPKKGKKAKKC(fluorescein‑maleimide)G (non-native N-terminal residues left by the recombinant method; PBP1 (ponA), Bacillus subtilis, residues 1-32; also called 31-labelled BsPBP1 1-32 R28A) [Fluorescein-BsPBP11-32 Arg28Ala] , and I need its recorded pKd.
-- reply 3.89

-- ask Would you mind telling me what pKd value was observed for GSMADQFNSREARRKANSKSSPSPKKGKKRKKC(fluorescein‑maleimide)G (non-native N-terminal residues left by the recombinant method; PBP1 (ponA), Bacillus subtilis, residues 1-32, cytoplasmic mini-domain; also called BsPBP1 1-32 labelled with fluorescein at residue 31; 31-labelled peptide) [Fluorescein-BsPBP11-32 wildtype] ?
-- reply 4.00

-- ask Return reported pKd; argument: GSMADQFNSREARRKANC(TAMRA‑maleimide)KSSPSPKKGKKRKKGG (PBP1 (ponA), Bacillus subtilis, residues 1-32, cytoplasmic mini-domain; also called TAMRA-labelled BsPBP1 1-32 (Ser16Cys); 16-labelled peptide) [TAMRA-BsPBP11-32 wildtype]
-- reply 3.92
